# method notes: Selectivity index, ratio of IC50 for electric eel AChE to IC50 for CDK9/CyclinT1 (unknown origin)

>  <structure smiles string>
N[C@H]1CCN(c2c3c(nc4ccc(-c5cc(NC(=O)C6CC6)ncn5)cc24)CCCCC3)C1

>  <Selectivity Index>
1250

$$$$
>  <structure smiles string>
N[C@H]1CCN(c2c3c(nc4ccc(-c5ccnc(NC(=O)C6CCCC6)c5)cc24)CCCCC3)C1

>  <Selectivity Index>
6180

$$$$
>  <structure smiles string>
CN(C)S(=O)(=O)c1ccc(Nc2cc(-c3ccc4nc5c(c(N6CC[C@H](N)C6)c4c3)CCCCC5)ccn2)cc1

>  <Selectivity Index>
346

$$$$
>  <structure smiles string>
N[C@H]1CCN(c2c3c(nc4ccc(-c5ccnc(NC(=O)C6CCCCC6)c5)cc24)CCCCC3)C1

>  <Selectivity Index>
9550

$$$$
>  <structure smiles string>
N[C@H]1CCN(c2c3c(nc4ccc(-c5ccnc(NC(=O)C6CC6)c5)cc24)CCCCCC3)C1

>  <Selectivity Index>
9210

$$$$
>  <structure smiles string>
N[C@H]1CCN(c2c3c(nc4ccc(-c5ccnc(NC(=O)C6CC6)c5)cc24)CCC3)C1

>  <Selectivity Index>
671

$$$$
>  <structure smiles string>
N[C@H]1CCN(c2c3c(nc4ccc(-c5ccncc5)cc24)CCCCC3)C1

>  <Selectivity Index>
2970

$$$$
>  <structure smiles string>
N[C@H]1CCN(c2c3c(nc4ccc(-c5ccnc(NC(=O)C6CC6)c5)cc24)CCCCC3)C1

>  <Selectivity Index>
14200

$$$$
>  <structure smiles string>
N[C@H]1CCN(c2c3c(nc4ccc(-c5ccnc(NC(=O)C6CCC6)c5)cc24)CCCCCC3)C1

>  <Selectivity Index>
8920

$$$$
